The reader will find reported inhibition at 100 µM values listed item by item below.
TESTED SYSTEM: BChE (EC 3.1.1.8) from horse serum (Equus caballus, UniProt P81908)
Construct: horse serum BChE (eqBChE, Sigma-Aldrich); purchased Sigma-Aldrich; host or cells: horse serum
Sequence (P81908 whole entry): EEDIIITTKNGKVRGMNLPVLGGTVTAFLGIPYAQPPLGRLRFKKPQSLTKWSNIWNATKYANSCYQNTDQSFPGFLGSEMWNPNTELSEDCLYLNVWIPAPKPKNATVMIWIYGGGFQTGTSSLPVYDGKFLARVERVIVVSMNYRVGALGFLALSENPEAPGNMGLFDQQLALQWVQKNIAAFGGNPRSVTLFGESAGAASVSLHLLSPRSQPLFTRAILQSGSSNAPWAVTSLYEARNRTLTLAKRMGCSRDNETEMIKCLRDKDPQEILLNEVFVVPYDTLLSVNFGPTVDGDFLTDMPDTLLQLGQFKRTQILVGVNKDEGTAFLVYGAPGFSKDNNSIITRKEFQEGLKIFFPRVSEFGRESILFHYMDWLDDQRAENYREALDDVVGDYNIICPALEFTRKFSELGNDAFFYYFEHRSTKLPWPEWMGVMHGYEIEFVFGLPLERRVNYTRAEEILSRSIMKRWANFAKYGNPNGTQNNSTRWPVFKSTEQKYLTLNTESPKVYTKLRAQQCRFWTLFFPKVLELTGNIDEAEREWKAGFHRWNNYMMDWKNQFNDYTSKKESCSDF
TEST METHOD NOTES: biochemical
RECORDED CONDITIONS: eqBChE; compound at 100 μM; read-out: BChE IR (inhibitory rate)
Reply with just the number (in %).

As a guide, the following entries are already answered.
# COMPOUND, inhibition at 100 µM, %
rows = [
    ("O=C(NCC1CCN(Cc2ccccc2Cl)CC1)c1ccc2[nH]cnc2c1 [Compound 11e]", 42.1),
    ("Cn1c(=O)n(C)c2cc(C(=O)NCC3CCN(Cc4ccc(Cl)cc4)CC3)ccc21 [Compound 9m]", 49.9),
    ("Cn1c(=O)n(C)c2cc(C(=O)NCC3CCN(Cc4cccc(Br)c4)CC3)ccc21 [Compound 9o]", 42.8),
]

// moving on: another record for inhibition at 100 µM
Request: What value of inhibition at 100 µM has been recorded for this entry: O=C(NCC1CCN(Cc2ccccc2)CC1)c1ccc2[nH]nnc2c1 [Compound 11f]
Response: 43.1

Data provenance is paper PMC6968383.
